# target: T1, ActRIIB-Fc homodimer (human, UniProt Q13705 19-137)
# T1 construct: extracellular domain; also called unmodified ActRIIB-Fc homodimer; ActRIIB-Fc:ActRIIB-Fc homodimer
# T1 sequence (looked up): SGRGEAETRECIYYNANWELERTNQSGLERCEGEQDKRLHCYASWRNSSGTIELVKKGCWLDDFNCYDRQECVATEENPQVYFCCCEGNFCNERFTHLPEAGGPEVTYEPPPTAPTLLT
# protocol text: SPR (Biacore), 37 C, anti-Fc capture, ligand in flow
Recorded koff values for a group of binders are listed next.
Expressed in s⁻¹, but write only the number.

BMP9 (ligand, UniProt Q9UK05 320-429, looked up, also called GDF2) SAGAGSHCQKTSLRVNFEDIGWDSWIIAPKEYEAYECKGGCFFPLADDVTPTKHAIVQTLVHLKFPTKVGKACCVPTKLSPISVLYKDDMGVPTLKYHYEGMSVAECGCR
0.0013
GDF3 (ligand, UniProt Q9NR23 251-364, looked up, also called VGR2) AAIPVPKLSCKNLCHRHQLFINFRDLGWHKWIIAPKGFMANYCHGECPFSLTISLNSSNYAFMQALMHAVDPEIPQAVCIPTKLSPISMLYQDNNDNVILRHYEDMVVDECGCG
0.0022
BMP10 (ligand, UniProt O95393 317-424, looked up) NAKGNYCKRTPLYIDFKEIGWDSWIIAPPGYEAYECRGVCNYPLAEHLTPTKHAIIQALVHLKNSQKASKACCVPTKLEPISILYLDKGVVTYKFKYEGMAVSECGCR
0.0002

QUERY: Dear colleague, I am looking for the recorded koff of the following binder: activin A (ligand, UniProt P08476 311-426, looked up) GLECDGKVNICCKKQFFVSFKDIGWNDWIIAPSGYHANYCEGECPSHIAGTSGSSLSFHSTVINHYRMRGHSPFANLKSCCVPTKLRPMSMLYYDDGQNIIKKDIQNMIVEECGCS
RESULT: 0.00019

QUERY: Dear colleague, I am looking for the recorded koff of the following binder: activin B (ligand, UniProt P09529 293-407, looked up) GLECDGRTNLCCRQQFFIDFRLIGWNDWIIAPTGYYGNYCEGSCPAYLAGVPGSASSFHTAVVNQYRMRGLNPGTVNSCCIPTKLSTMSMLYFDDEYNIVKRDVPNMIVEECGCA
RESULT: 6.6e-05

QUERY: Dear colleague, I am looking for the recorded koff of the following binder: GDF11 (ligand, UniProt O95390 299-407, looked up, also called BMP11) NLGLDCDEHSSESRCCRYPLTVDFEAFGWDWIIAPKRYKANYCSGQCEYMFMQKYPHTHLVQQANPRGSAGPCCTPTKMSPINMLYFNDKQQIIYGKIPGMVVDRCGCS
RESULT: 0.00017
